All values here come from paper PMC9911399.

Biological target: T1, RBFOX1 RRM (Homo sapiens, UniProt Q9NWB1 109-208)
T1 sequence: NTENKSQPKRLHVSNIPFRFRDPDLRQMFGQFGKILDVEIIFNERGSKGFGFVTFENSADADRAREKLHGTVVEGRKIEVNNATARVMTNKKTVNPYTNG
Assay: EMSA; HiTS-Eq, 1 nM pool, 10 min; buffer printed only for the single-RNA assays: 10 mM Tris pH 7.5, 150 mM NaCl, 3.4 mM EDTA, 0.001% NP-40, 30 C
Conditions: tags: His6 N-terminal (pET28a); label: 5' 32P
Over roughly 16,000 sequences, “ka relative to ugcaugu” has its median near 0.0091; the highest 2% begin near 0.032. The list comes from a sample in which the highest values are over-represented; it also holds close analogues and randomly drawn sequences.
measure: binding signal

GUGAUCC (DNA:RNA) RNA: GGGAGACCGGAAUUCAGAUUGUCCGUGAUCCUUAAAUCCCGUCGUAGCCACCA DNA 1: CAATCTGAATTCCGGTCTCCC DNA 2: TGGTGGCTACGACGGGATT    0.0187 KA relative to UGCAUGU

API: the following record is the query input.
Enquiry: Returns the measured binding signal for the input binder. Input: ACAACUC (DNA:RNA) RNA: GGGAGACCGGAAUUCAGAUUGUCCACAACUCUUAAAUCCCGUCGUAGCCACCA DNA 1: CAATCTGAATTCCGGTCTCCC DNA 2: TGGTGGCTACGACGGGATT
Return: 0.00147 KA relative to UGCAUGU
